system: TNFα / p75 TNFα receptor (CD120b) (Homo sapiens, UniProt P01375)
Sequence (P01375 77-233 limits assumed): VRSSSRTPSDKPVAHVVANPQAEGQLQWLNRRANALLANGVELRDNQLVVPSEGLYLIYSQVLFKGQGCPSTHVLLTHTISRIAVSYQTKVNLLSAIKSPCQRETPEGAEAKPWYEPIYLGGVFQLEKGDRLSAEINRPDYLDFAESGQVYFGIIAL
protocol_summary: Binding ELISA: sTNF-R2 binding to plastic coated TNF-α
run_parameters: 10^−5 M
reported_property: inhibition at 10 µM
Answer by giving the amount and then stating its unit.

NCCc1ccc(Nc2nc(NCCNc3nc(Nc4ccccc4)nc(Nc4ccc(CCN)cc4)n3)nc(Nc3ccccc3)n2)cc1: 2.06%

Query (compound): Oc1ccc(CCNc2nc(NCCNc3nc(NCCc4ccc(O)cc4)nc(Nc4ccccc4)n3)nc(Nc3ccccc3)n2)cc1 ; field requested: inhibition at 10 µM
0%

What about Oc1ccc(CCNc2nc(NCCCNc3nc(NCCc4ccc(O)cc4)nc(Nc4ccccc4)n3)nc(Nc3ccccc3)n2)cc1 ?
6.76%

What about Cc1ccccc1Nc1nc(NCCNc2nc(NCCc3ccc(O)cc3)nc(Nc3ccccc3C)n2)nc(NCCc2ccc(O)cc2)n1 ?
4.31%

* * *

Catalogue of IC50 values
system: Fc portion of human IgG (binding of protein A to human IgG)
Construct: fused on or other part: Horseradish peroxidase chemically conjugated to the IgG (HRP-IgG)
protocol_summary: Competitive protein A binding ELISA
run_parameters: Table 1; PBS; read-out: IC50 (μM): Assay in PBS
# value in µM; strip the unit string

Below, 5 molecules whose answers are already recorded.
Nc1ccc(CCNc2nc(NCCCCCCNc3nc(NCCc4ccc(N)cc4)nc(Nc4cccc(N)c4)n3)nc(Nc3cccc(N)c3)n2)cc1: 0.99
Nc1ccc(CCNc2nc(Nc3cccc(N)c3)nc(N3CCN(c4nc(NCCc5ccc(N)cc5)nc(Nc5cccc(N)c5)n4)CC3)n2)cc1: 0.2
Nc1cccc(Nc2nc(N)nc(Nc3cccc(Nc4nc(NCCO)nc(Nc5cccc(N)c5)n4)c3)n2)c1: 0.2
Nc1ccc(CNc2nc(NCc3ccc(CNc4nc(NCc5ccc(N)cc5)nc(Nc5cccc(N)c5)n4)cc3)nc(Nc3cccc(N)c3)n2)cc1: 0.2
N=C(N)NCCNc1nc(NCCc2ccc(Oc3nc(NCCc4ccc(O)cc4)nc(Nc4ccccc4)n3)cc2)nc(Nc2ccccc2)n1: 33

From here, focus on the item given below.
Report IC50 for Nc1ccc(CNc2nc(NCCNc3nc(NCc4ccc(N)cc4)nc(Nc4ccccc4)n3)nc(Nc3ccccc3)n2)cc1 tested on Fc portion of human IgG (binding of protein A to human IgG).
2.4

* * *

protocol_summary: PBML cytotoxicity (MTT)
Assay type: cell-based
run_parameters: human, ConA stimulated PBML
Catalogue of IC50 at 48 h values
# value in µM; strip the unit string

Oc1ccc(CCNc2nc(NCCNc3nc(NCCc4ccc(O)cc4)nc(Nc4ccccc4)n3)nc(Nc3ccccc3)n2)cc1: 8.7

From here, focus on the item given below.
Query (compound): Nc1ccc(CCNc2nc(Nc3ccc(CCNc4nc(NCCO)nc(Nc5cccc(N)c5)n4)cc3)nc(Nc3cccc(N)c3)n2)cc1 [Compound 19a] ; field requested: IC50 at 48 h
6.8

* * *

protocol_summary: PBML cytotoxicity (MTT)
Type: cell-based
run_parameters: human, Resting PBML
reported_property: IC50 at 48 h

Query (molecule): Nc1ccc(CCNc2nc(NCCNc3nc(NCCc4ccc(N)cc4)nc(Nc4cccc(N)c4)n3)nc(Nc3cccc(N)c3)n2)cc1 ; field requested: IC50 at 48 h
> 10 µM

What about Oc1ccc(CCNc2nc(NCCNc3nc(NCCc4ccc(O)cc4)nc(Nc4ccccc4)n3)nc(Nc3ccccc3)n2)cc1 ?
> 10 µM

What about Nc1ccc(CCNc2nc(Nc3ccc(CCNc4nc(NCCO)nc(Nc5cccc(N)c5)n4)cc3)nc(Nc3cccc(N)c3)n2)cc1 [Compound 19a] ?
≥ 10 µM

* * *

Catalogue of pIC50 values
system: Fc portion of human IgG (binding of protein A to human IgG)
Construct: fused on or other part: Horseradish peroxidase chemically conjugated to the IgG (HRP-IgG)
protocol_summary: Competitive protein A binding ELISA
run_parameters: Table 2; PBS; n = 5 or 6; read-out: IC50 (n = 5 or 6) PBS
Answer as the number alone; pIC50 is minus log10 of concentration in mol/L.

Below, 3 compounds whose answers are already recorded.
Nc1ccc(CCNc2nc(Nc3cccc(N)c3)nc(N3CCN(c4nc(NCCc5ccc(N)cc5)nc(Nc5cccc(N)c5)n4)CC3)n2)cc1: 6.65
Nc1ccc(CCNc2nc(Nc3ccc(CCNc4nc(NCCO)nc(Nc5cccc(N)c5)n4)cc3)nc(Nc3cccc(N)c3)n2)cc1 [Compound 19a]: 7.06
Nc1ccc(CCNc2nc(NCCNc3nc(NCCc4ccc(N)cc4)nc(Nc4cccc(N)c4)n3)nc(Nc3cccc(N)c3)n2)cc1: 6.73

From here, focus on the item given below.
Query (compound): Nc1ccc(CCNc2nc(NCC3CCN(c4nc(NCCc5ccc(N)cc5)nc(Nc5cccc(N)c5)n4)CC3)nc(Nc3cccc(N)c3)n2)cc1 ; field requested: pIC50
6.37

* * *

system: TNFα / p75 TNFα receptor (CD120b) (Homo sapiens, UniProt P01375)
protocol_summary: Binding ELISA: sTNF-R2 binding to plastic coated TNF-α
run_parameters: 10^−4 M
Catalogue of inhibition at 100 µM values
# value in %; strip the unit string

Oc1ccc(CCNc2nc(NCCCNc3nc(NCCc4ccc(O)cc4)nc(Nc4ccccc4)n3)nc(Nc3ccccc3)n2)cc1: 4.22
NCCc1ccc(Nc2nc(NCCNc3nc(Nc4ccccc4)nc(Nc4ccc(CCN)cc4)n3)nc(Nc3ccccc3)n2)cc1: 5.26
Cc1ccccc1Nc1nc(NCCNc2nc(NCCc3ccc(O)cc3)nc(Nc3ccccc3C)n2)nc(NCCc2ccc(O)cc2)n1: 2.68

Query (compound): Oc1ccc(CCNc2nc(NCCNc3nc(NCCc4ccc(O)cc4)nc(Nc4ccccc4)n3)nc(Nc3ccccc3)n2)cc1 ; field requested: inhibition at 100 µM
0

* * *

system: Fc portion of human IgG (binding of protein A to human IgG)
Construct: fused on or other part: Horseradish peroxidase chemically conjugated to the IgG (HRP-IgG)
protocol_summary: Competitive protein A binding ELISA
run_parameters: Table 2; PBS-20% DMSO; n = 5 or 6; read-out: IC50 (n = 5 or 6) PBS-20% DMSO
reported_property: IC50 (nM)
# value in nM; strip the unit string

Nc1ccc(CCNc2nc(NCCNc3nc(NCCc4ccc(N)cc4)nc(Nc4cccc(N)c4)n3)nc(Nc3cccc(N)c3)n2)cc1: 21.7
Nc1ccc(CCNc2nc(Nc3cccc(N)c3)nc(N3CCN(c4nc(NCCc5ccc(N)cc5)nc(Nc5cccc(N)c5)n4)CC3)n2)cc1: 2.9
Nc1ccc(CCNc2nc(NCC3CCN(c4nc(NCCc5ccc(N)cc5)nc(Nc5cccc(N)c5)n4)CC3)nc(Nc3cccc(N)c3)n2)cc1: 33

Query (molecule): Nc1ccc(CCNc2nc(Nc3ccc(CCNc4nc(NCCO)nc(Nc5cccc(N)c5)n4)cc3)nc(Nc3cccc(N)c3)n2)cc1 [Compound 19a] ; field requested: IC50
3.5

* * *

Tested on: TNFα-induced apoptosis, WEHI-13VAR cells
protocol_summary: TNFα induced apoptosis in WEHI-13VAR cells (MTT)
Format: cell-based, murine
run_parameters: Mus musculus; 2 × 10^−5M
Output t for inhibition at 20 µM not less than 40%; output f otherwise.

Cc1ccccc1Nc1nc(NCCNc2nc(NCCc3ccc(O)cc3)nc(Nc3ccccc3C)n2)nc(NCCc2ccc(O)cc2)n1: f

Please check the record Nc1cccc(Nc2nc(NCCO)nc(Nc3ccc(CNc4nc(Nc5cccc(N)c5)nc(Nc5cccc(N)c5)n4)cc3)n2)c1 and state if its inhibition at 20 µM is at or above 40%.
f

What about Oc1ccc(CCNc2nc(NCCNc3nc(NCCc4ccc(O)cc4)nc(Nc4ccccc4)n3)nc(Nc3ccccc3)n2)cc1 ?
f

* * *

system: Fc portion of human IgG (binding of protein A to human IgG)
Construct: fused on or other part: Horseradish peroxidase chemically conjugated to the IgG (HRP-IgG)
protocol_summary: Competitive protein A binding ELISA
run_parameters: Table 1; PBS-20% DMSO; read-out: IC50 (μM): Assay in PBS-20% DMSO
Please note: IC50 exactly at 20 µM is 0.0. Only values below 20 µM get 1.0.

Example entries and their recorded answers appear below.
NCCc1ccc(Nc2nc(NCCNc3nc(Nc4ccccc4)nc(Nc4ccc(CCN)cc4)n3)nc(Nc3ccccc3)n2)cc1: 0.0
Nc1cccc(Nc2nc(NCCO)nc(Nc3cccc(Nc4nc(NCCO)nc(Nc5cccc(N)c5)n4)c3)n2)c1: 1.0
Nc1cccc(Nc2nc(NCCO)nc(Nc3ccc(CNc4nc(Nc5cccc(N)c5)nc(Nc5cccc(N)c5)n4)cc3)n2)c1: 1.0
Nc1ccc(CCNc2nc(Nc3ccc(CCNc4nc(NCCO)nc(Nc5cccc(N)c5)n4)cc3)nc(Nc3cccc(N)c3)n2)cc1 [Compound 19a]: 1.0
Oc1ccc(CCNc2nc(Nc3ccccc3)nc(Nc3ccc(Nc4nc(NCCc5ccc(O)cc5)nc(Nc5ccccc5)n4)cc3)n2)cc1: 0.0

Quick check: IC50 of Nc1ccc(CCNc2nc(Nc3cccc(N)c3)nc(N3CCN(c4nc(NCCc5ccc(N)cc5)nc(Nc5cccc(N)c5)n4)CC3)n2)cc1 under 20 µM?
1.0

What about Nc1cccc(Nc2nc(N)nc(Nc3cccc(Nc4nc(N)nc(Nc5cccc(N)c5)n4)c3)n2)c1 ?
1.0
